Reported inhibition in vivo at 100 mg/kg values are given for each entry in this list.
# Test system: Mus musculus
# Experiment Summary: Antiinflammatory activity in Swiss albino mouse assessed as inhibition of carrageenan-induced paw edema at 100 mg/kg, po administered 60 mins before carrageenan challenge measured after 270 mins
# Format: functional

Some compounds with recorded inhibition in vivo at 100 mg/kg:
CCOC(=O)c1sc2nc(S[C@@H]3O[C@H](COC(C)=O)[C@@H](OC(C)=O)[C@H](OC(C)=O)[C@H]3OC(C)=O)n(N)c(=O)c2c1C 20.3%
CCOC(=O)c1sc2[nH]c(=S)n(N)c(=O)c2c1C 8.3%
CC(=O)OC[C@H]1O[C@@H](Sc2nc3sc(C(C)=O)c(C)c3c(=O)n2N)[C@H](OC(C)=O)[C@@H](OC(C)=O)[C@@H]1OC(C)=O 29.9%

Shifting focus to the compound that follows.
inhibition in vivo at 100 mg/kg lookup needed for CC(=O)c1sc2nc(S[C@@H]3O[C@H](CO)[C@@H](O)[C@@H]3O)n(N)c(=O)c2c1C , thanks. 28.6%

---

# Test system: Mus musculus
# Experiment Summary: Antiinflammatory activity in Swiss albino mouse assessed as inhibition of carrageenan-induced paw edema at 100 mg/kg, po administered 60 mins before carrageenan challenge measured after 270 mins
# Format: functional
Reported inhibition in vivo at 100 mg/kg values are given for each entry in this list.
Answer with a number only, understood to be in %.

Compound	Tested System	Readout Unit	inhibition in vivo at 100 mg/kg
CC(=O)OC[C@H]1O[C@@H](Sc2nc3sc(C(C)=O)c(C)c3c(=O)n2N)[C@@H](OC(C)=O)[C@@H]1OC(C)=O	Mus musculus	%	28.6
CCOC(=O)c1sc2c(c1C)C(=O)N(N)C(S[C@@H]1O[C@H](CO)[C@@H](O)[C@H](O)[C@H]1O)N2 (stereo partly drawn)	Mus musculus	%	33.9

inhibition in vivo at 100 mg/kg lookup needed for CCOC(=O)c1sc2nc(S[C@@H]3O[C@H](COC(C)=O)[C@@H](OC(C)=O)[C@@H]3OC(C)=O)n(N)c(=O)c2c1C , thanks. 35.9

---

# Test system: Mus musculus
# Experiment Summary: Antiinflammatory activity in Swiss albino mouse assessed as inhibition of carrageenan-induced paw edema at 100 mg/kg, po administered 60 mins before carrageenan challenge measured after 270 mins
# Format: functional
Label MET when inhibition in vivo at 100 mg/kg >= 40%; otherwise NOT MET.

Compound	Assigned Class
CC(=O)OC[C@H]1O[C@@H](Sc2nc3sc(C(C)=O)c(C)c3c(=O)n2N)[C@H](OC(C)=O)[C@@H](OC(C)=O)[C@H]1OC(C)=O	NOT MET
CC(=O)c1sc2c(c1C)C(=O)N(N)C(S[C@@H]1O[C@H](CO)[C@H](O)[C@H](O)[C@H]1O)N2 (stereo not given in full)	NOT MET
CC(=O)c1sc2[nH]c(=S)n(N)c(=O)c2c1C	NOT MET

Identify whether the reported inhibition in vivo at 100 mg/kg of the following compound is 40% or greater: COc1ccc2c(c1)c(CC(=O)O)c(C)n2C(=O)c1ccc(Cl)cc1 MET

Identify whether the reported inhibition in vivo at 100 mg/kg of the following compound is 40% or greater: CCOC(=O)c1sc2nc(S[C@@H]3O[C@H](CO)[C@@H](O)[C@@H]3O)n(N)c(=O)c2c1C NOT MET
